The reported measurements were obtained from paper PMC12553364.

Listed below: AUC(0-inf) values for each entry.
- METHOD NOTES: In vivo pharmacokinetic interaction study in Sprague-Dawley rats
- MEASUREMENT PARAMETERS: male, Sprague-Dawley, rat, plasma, po, 25 mg/kg, group Crizotinib + Tropifexor: oral tropifexor 20 µg/kg 30 min before oral crizotinib 25 mg/kg, rat plasma, n = 5, mean ± S.D.

COMPOUND	AUC(0-inf), ng·h/mL
C[C@@H](Oc1cc(-c2cnn(C3CCNC(=O)C3)c2)cnc1N)c1c(Cl)ccc(F)c1Cl (some centres unmarked) [2-Keto crizotinib]	880
C[C@@H](Oc1cc(-c2cnn(C3CCNCC3)c2)cnc1N)c1c(Cl)ccc(F)c1Cl [crizotinib, Crizotinib]	5670
